Just for reference, ChEMBL document CHEMBL1131328 is where these values come from.

Consider the following compounds; for each one, report its minimal effective dose.
Tested on: Rattus norvegicus
Method description: Minimally effective dose(MED) (mg/kg body weight) at which a significant increase in EPO activity was observed in rats
Type: functional
Test parameters: read-out: MED

Record CC/C(=C(\c1ccccc1)c1ccc(OCCN(C)C)cc1)c1ccccc1 [TAMOXIFEN] . Reported minimal effective dose: 0.1 mg/kg

Record Oc1ccc2c(c1)OC(c1ccc(OCCN3CCCCC3)cc1)c1c-2oc2cc(O)ccc12 (centres undefined) . Reported minimal effective dose: > 10 mg/kg

Record Oc1ccc2c(c1)OC(c1ccc(OCCN3CCCCC3)cc1)c1c-2sc2ccccc12 (centres undefined) . Reported minimal effective dose: > 10 mg/kg

Record Oc1ccc2c3c(sc2c1)-c1ccccc1OC3c1ccc(OCCN2CCCCC2)cc1 (centres undefined) . Reported minimal effective dose: > 10 mg/kg

Record O=C1CCCN1CCOc1ccc(C2Oc3cc(O)ccc3-c3sc4cc(O)ccc4c32)cc1 (centres undefined) . Reported minimal effective dose: > 3 mg/kg

Record O=C(c1ccc(OCCN2CCCCC2)cc1)c1c(-c2ccc(O)cc2)sc2cc(O)ccc12 [RALOXIFENE] . Reported minimal effective dose: > 10 mg/kg

Record c1ccc2c(c1)OC(c1ccc(OCCN3CCCCC3)cc1)c1c-2sc2ccccc12 (centres undefined) . Reported minimal effective dose: > 10 mg/kg

Record Oc1ccc2c(c1)OC(c1ccc(OCCN3CCCCC3)cc1)c1c-2sc2cc(O)ccc12 (centres undefined) . Reported minimal effective dose: > 10 mg/kg

Record Oc1ccc2c(c1)OC(c1ccc(OCCN3CCCCC3)cc1)c1c-2ccc2cc(O)ccc12 (centres undefined) . Reported minimal effective dose: > 10 mg/kg

Record Oc1ccc2c(c1)OC(c1ccc(OCCN3CCOCC3)cc1)c1c-2sc2cc(O)ccc12 (centres undefined) . Reported minimal effective dose: 1 mg/kg

Record C#C[C@]1(O)CC[C@H]2[C@@H]3CCc4cc(O)ccc4[C@H]3CC[C@@]21C [ETHINYL ESTRADIOL] . Reported minimal effective dose: 0.1 mg/kg

Record Oc1ccc2c(c1)OC(c1ccc(OCCN3CCCC3)cc1)c1c-2sc2cc(O)ccc12 (centres undefined) . Reported minimal effective dose: > 1 mg/kg

Record CCN(CC)CCOc1ccc(C2Oc3cc(O)ccc3-c3sc4cc(O)ccc4c32)cc1 (centres undefined) . Reported minimal effective dose: 0.1 mg/kg

Record CN(C)CCOc1ccc(C2Oc3cc(O)ccc3-c3sc4cc(O)ccc4c32)cc1 (centres undefined) . Reported minimal effective dose: 0.1 mg/kg
